# method_summary: Pharmacokinetic study of YCHD components and phase II metabolites in ANIT-induced cholestatic rats (UHPLC-MS/MS, sulfatase enzymolysis)
# Assay type: in vivo, rat
# settings: rat, in vivo, po, 12 g/kg; read-out: Vz/F
experimental_readout: Vd/F (L/kg)
Quick reminder: number only, in L/kg, skip the unit.

Req: Which Vd/F value belongs to COC(=O)C1=CO[C@@H](O[C@@H]2O[C@H](CO)[C@@H](O)[C@H](O)[C@H]2O)[C@@H]2C(CO)=CC[C@H]12 [Geniposide] ?
Resp: 22.4

Consider now this further compound.
Req: Which Vd/F value belongs to COC(=O)C1=COC(OC2OC(CO)C(O)C(O)C2O)C2C(CO)=CC(O)C12 (centres unmarked) [Scandoside methyl ester] ?
Resp: 95.6
